experimentalProtocol: PK study in male ICR mice, intravenous and oral administration, plasma concentration
Format: in vivo
assayConditions: mouse, plasma, IV (2 mg/kg), read-out: Vz
experimentalReadout: Vd
# answer = value followed by unit

Prompt line: Request the reported Vd associated with "COc1ccc(F)c(S(=O)(=O)Nc2ccc(-c3ccc4c(N)n[nH]c4c3)nc2)c1"
Response line: 0.12 L/kg

====

assayedSystem: Sgk1 (Homo sapiens, UniProt O00141)
Sequence (O00141 whole entry): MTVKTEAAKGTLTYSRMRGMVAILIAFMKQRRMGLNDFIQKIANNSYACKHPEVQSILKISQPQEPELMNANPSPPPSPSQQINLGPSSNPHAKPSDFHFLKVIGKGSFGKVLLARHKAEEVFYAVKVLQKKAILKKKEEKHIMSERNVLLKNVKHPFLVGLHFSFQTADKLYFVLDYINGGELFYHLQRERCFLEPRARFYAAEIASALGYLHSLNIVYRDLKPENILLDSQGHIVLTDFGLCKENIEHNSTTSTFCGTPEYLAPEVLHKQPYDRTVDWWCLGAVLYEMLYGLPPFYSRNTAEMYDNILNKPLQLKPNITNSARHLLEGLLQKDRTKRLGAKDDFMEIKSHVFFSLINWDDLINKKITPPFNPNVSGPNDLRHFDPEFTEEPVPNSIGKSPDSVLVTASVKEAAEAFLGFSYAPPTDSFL
experimentalProtocol: Enzyme based assay for SGK1 (biotinylated Akt Substrates-2 peptide, Eu3+ Cryptate/XL665 detection)
Assay type: biochemical
assayConditions: 1 mM ATP; read-out: Sgk1 (1 mM ATP)
Exercise: state measured log10 of IC50 for each of the compounds provided.
The figures below represent log10 of IC50, where IC50 is stated in nM.

Answered examples (2):
# compound, assayedSystem, log10 of IC50
data = [
    ("COc1ccc(F)c(S(=O)(=O)Nc2ccc(-c3cc4c5c(n[nH]c5c3)NC(=O)CO4)cc2)c1", "Sgk1 (Homo sapiens, UniProt O00141)", 2.99),
    ("COc1ccc(Cl)c(S(=O)(=O)Nc2ccc(-c3cc(OCC4CNCCO4)c4cn[nH]c4c3)cc2)c1 (stereo not shown)", "Sgk1 (Homo sapiens, UniProt O00141)", 1.50),
]

State the recorded log10 of IC50 for every item in the following list.
1. COc1ccc(F)c(S(=O)(=O)Nc2ccc(-c3cc4[nH]ncc4c(SCC4CNCCO4)n3)cc2)c1 (stereo not shown)
2. O=S(=O)(Nc1ccc(-c2ccc3cn[nH]c3n2)cc1)c1cc(Cl)ccc1F
3. COc1ccc(F)c(S(=O)(=O)Nc2ccc(-c3cc4[nH]ncc4c(NCC4CNCCO4)n3)cc2)c1 (stereo not shown)
4. COc1ccc(F)c(S(=O)(=O)Nc2ccc(-c3cc(OC)c4c(N)n[nH]c4c3)cn2)c1
5. CNCCOc1cc(-c2ccc(NS(=O)(=O)c3cc(OC)ccc3F)cc2)cc2[nH]nc(N)c12
6. COc1ccc(F)c(S(=O)(=O)Nc2ccc(-c3cc(OC)c4c(N)n[nH]c4n3)cc2)c1
7. COc1ccc(F)c(S(=O)(=O)Nc2ccc(-c3cc(OCCN(C)C)c4c(N)n[nH]c4c3)cc2)c1
8. COc1ccc(F)c(S(=O)(=O)Nc2ccc(-c3cc(O[C@H]4CCOC4)c4c(N)n[nH]c4c3)cc2)c1

Response line:
1. 0.82
2. 1.89
3. 0.62
4. 2.12
5. 1.05
6. 2.05
7. 1.30
8. 0.46

====

assayedSystem: Sgk1 (Homo sapiens)
experimentalProtocol: Enzyme based assay for SGK1 (biotinylated Akt Substrates-2 peptide, Eu3+ Cryptate/XL665 detection)
Format: biochemical
assayConditions: 50 μM ATP; read-out: Sgk1 (50 μM ATP)
experimentalReadout: IC50 (nM)
Answers are plain numbers, in nM.

# molecule, measurementUnit, IC50
data = [
    ("COc1ccc(F)c(S(=O)(=O)Nc2ccc(-c3cc(OC4COC4)c4c(N)n[nH]c4c3)cc2)c1", "nM", 8.6),
    ("Nc1n[nH]c2cc(-c3ccc(NS(=O)(=O)c4cc(Cl)ccc4F)cc3)ccc12", "nM", 3.2),
    ("COc1ccc(F)c(S(=O)(=O)Nc2ccc(-c3cc(OCCO)c4c(N)n[nH]c4c3)cc2)c1", "nM", 5.1),
    ("Nc1n[nH]c2cc(-c3ccc(NS(=O)(=O)c4cccc(Cl)c4Cl)cn3)ccc12", "nM", 150),
]

State the recorded IC50 for every item in the following list.
1. COc1ccc(F)c(S(=O)(=O)Nc2ccc(-c3ccc4c(N)n[nH]c4c3)nc2)c1 [drawing 151]
2. COc1ccc(F)c(S(=O)(=O)Nc2ccc(-c3cc(OCC4CNCCO4)c4cn[nH]c4n3)cc2)c1 (stereo not drawn)
3. CCOc1cc(-c2ccc(NS(=O)(=O)c3cc(OC)ccc3F)cc2)cc2[nH]nc(N)c12
4. COc1ccc(F)c(S(=O)(=O)Nc2ccc(-c3cc(OCC4CNCCO4)c4c(N)n[nH]c4c3)cc2)c1 (stereo not drawn)

Response line:
1. 25
2. 3.4
3. 11.8
4. 2.3

====

experimentalProtocol: PK study in male ICR mice, intravenous and oral administration, plasma concentration
Type: in vivo
assayConditions: mouse, plasma, PO (20 mg/kg)
experimentalReadout: Tmax (min)
Numbers only, in min.

Prompt line: Request the reported Tmax associated with COc1ccc(F)c(S(=O)(=O)Nc2ccc(-c3ccc4c(N)n[nH]c4c3)nc2)c1 [Compound N]
Response line: 15

====

Exercise: state measured IC50 for each of the compounds provided.
assayedSystem: Sgk2 (Homo sapiens, UniProt Q9HBY8)
Sequence (Q9HBY8 1-367): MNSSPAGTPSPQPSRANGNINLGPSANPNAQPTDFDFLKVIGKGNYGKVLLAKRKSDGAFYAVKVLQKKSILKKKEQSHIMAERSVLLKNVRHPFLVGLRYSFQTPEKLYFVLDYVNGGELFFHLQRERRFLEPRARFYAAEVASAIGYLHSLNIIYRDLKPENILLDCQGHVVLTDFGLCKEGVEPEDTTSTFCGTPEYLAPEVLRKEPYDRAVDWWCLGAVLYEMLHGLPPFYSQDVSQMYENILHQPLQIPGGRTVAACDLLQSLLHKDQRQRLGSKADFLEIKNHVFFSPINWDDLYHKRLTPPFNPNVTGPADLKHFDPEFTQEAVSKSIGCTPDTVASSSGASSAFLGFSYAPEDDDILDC
experimentalProtocol: Enzyme based assay for SGK2 (biotinylated Akt Substrates-2 peptide, Eu3+ Cryptate/XL665 detection)
Assay type: biochemical
assayConditions: 1 mM ATP; read-out: Sgk2 (1 mM ATP)

Answered examples (3):
# compound, IC50
data = [
    ("CCOc1cc(-c2ccc(NS(=O)(=O)c3cc(OC)ccc3F)cc2)cc2[nH]nc(N)c12", "29.9 nM"),
    ("COc1ccc(F)c(S(=O)(=O)Nc2ccc(-c3cc(OC)c4c(N)n[nH]c4n3)cc2)c1", "35.7 nM"),
    ("COc1ccc(F)c(S(=O)(=O)Nc2ccc(-c3cc(O[C@H]4CCOC4)c4c(N)n[nH]c4c3)cc2)c1", "16.4 nM"),
]

State the recorded IC50 for every item in the following list.
1. CNCCOc1cc(-c2ccc(NS(=O)(=O)c3cc(OC)ccc3F)cc2)cc2[nH]nc(N)c12
2. COc1ccc(F)c(S(=O)(=O)Nc2ccc(-c3cc4[nH]ncc4cn3)cc2)c1
3. Nc1n[nH]c2nc(-c3ccc(NS(=O)(=O)c4cc(Cl)ccc4F)cc3)ccc12
4. COc1ccc(Cl)c(S(=O)(=O)Nc2ccc(-c3cc(OCC4CNCCO4)c4cn[nH]c4c3)cc2)c1 (centres unmarked)
5. COc1ccc(F)c(S(=O)(=O)Nc2ccc(-c3cc(O[C@H]4CCOC4)c4c(N)n[nH]c4c3)nc2)c1

Response line:
1. 38.8 nM
2. > 200 nM
3. 569 nM
4. 25.2 nM
5. 17.8 nM

====

assayedSystem: Sgk2 (Homo sapiens, UniProt Q9HBY8)
experimentalProtocol: Enzyme based assay for SGK2 (biotinylated Akt Substrates-2 peptide, Eu3+ Cryptate/XL665 detection)
Format: biochemical
assayConditions: 50 μM ATP; read-out: Sgk2 (50 μM ATP)
Assign classes using reported IC50 values and the ranges LOW (below 4 nM), MID (4 nM to below 8 nM), HIGH (8 nM or more), please.

# compound, discreteLabel
rows = [
    ("O=S(=O)(Nc1ccc(-c2ccc3cn[nH]c3n2)cc1)c1cc(Cl)ccc1F", "MID"),
    ("COc1ccc(F)c(S(=O)(=O)Nc2ccc(-c3cc(OCC4CNCCO4)c4cn[nH]c4n3)cc2)c1 (centres unmarked)", "LOW"),
    ("COc1ccc(F)c(S(=O)(=O)Nc2ccc(-c3cc4[nH]ncc4c(NCC4CNCCO4)n3)cc2)c1 (centres unmarked)", "MID"),
    ("COc1ccc(F)c(S(=O)(=O)Nc2ccc(-c3ccc4cn[nH]c4c3)nc2)c1", "HIGH"),
    ("COc1ccc(Cl)c(S(=O)(=O)Nc2ccc(-c3cc(OCC4CNCCO4)c4cn[nH]c4c3)cc2)c1 (centres unmarked)", "LOW"),
    ("COc1ccc(F)c(S(=O)(=O)Nc2ccc(-c3cc4c5c(n[nH]c5c3)NC(=O)C(C)(C)O4)cc2)c1", "HIGH"),
    ("COc1ccc(F)c(S(=O)(=O)Nc2ccc(-c3ccc4c(N)n[nH]c4c3)nc2)c1 [drawing 151]", "MID"),
    ("COc1ccc(F)c(S(=O)(=O)Nc2ccc(-c3cc(C)c4c(N)n[nH]c4c3)cc2)c1", "HIGH"),
]

Prompt line: // return the class label for COc1ccc(F)c(S(=O)(=O)Nc2ccc(-c3cc4[nH]nc(N)c4c(C)n3)cc2)c1 [drawing 110]
Response line: LOW

Prompt line: // return the class label for COc1ccc(F)c(S(=O)(=O)Nc2ccc(-c3cc4[nH]ncc4c(OCC4CNCCO4)n3)cc2)c1 (centres unmarked) [drawing 99]
Response line: LOW

Prompt line: // return the class label for COc1ccc(F)c(S(=O)(=O)Nc2ccc(-c3ccc4c(N)n[nH]c4n3)cc2)c1 [drawing 140]
Response line: LOW

Prompt line: // return the class label for "CNCCOc1cc(-c2ccc(NS(=O)(=O)c3cc(OC)ccc3F)cc2)cc2[nH]nc(N)c12"
Response line: MID

Prompt line: // return the class label for "COCCOc1cc(-c2ccc(NS(=O)(=O)c3cc(OC)ccc3F)cn2)cc2[nH]nc(N)c12"
Response line: MID

Prompt line: // return the class label for "Nc1n[nH]c2nc(-c3ccc(NS(=O)(=O)c4cc(Cl)ccc4F)cc3)ccc12"
Response line: HIGH

Prompt line: // return the class label for COc1ccc(F)c(S(=O)(=O)Nc2ccc(-c3cc(OC4CCOC4)c4c(N)n[nH]c4n3)cc2)c1 (centres unmarked)
Response line: MID

Prompt line: // return the class label for COc1ccc(F)c(S(=O)(=O)Nc2ccc(-c3cc4[nH]ncc4c(SCC4CNCCO4)n3)cc2)c1 (centres unmarked)
Response line: LOW

Prompt line: // return the class label for "COc1ccc(F)c(S(=O)(=O)Nc2ccc(-c3cc(OC(C)C)c4c(N)n[nH]c4c3)cc2)c1"
Response line: HIGH
